- assay-summary: in vivo
- condition-summary: SD, rat, iv, 2.5 mg/kg
Numbered stars: 1 amine (or outer) side, 2 acyl side, 3 side chain; on linkers, the order of the positions; unused ones are H or OH. Bridge positions count the residues as written; N and C are the ends. Square brackets hold non-standard residues; d marks the D form. Peptide text beside a SMILES is read from it. * marks the point of attachment. Orn(4R-OH,5R-OCH2CH2NMe3+) = C[N+](C)(C)CCO[C@@H](N[*:3])[C@H](O)C[C@H](N[*:1])C(=O)[*:2]; hTyr(3S-OH,4S-OH) = N[C@H](C(=O)O)[C@H](O)[C@@H](O)c1ccc(O)cc1; X1 = CCCCCOc1cc(F)c(C#Cc2ccc3cc(C(=O)*)ccc3c2)cc1F; Pro(3S-OH,4S-Me) = C[C@H]1CN[C@H](C(=O)O)[C@H]1O; Hyp = O=C(O)[C@@H]1C[C@@H](O)CN1
observed-property: half-life (h)
Number only, in h; omit the unit.

Inquiry: Report half-life for CCCCCOc1cc(F)c(C#Cc2ccc3cc(C(=O)N[C@H]4C[C@@H](O)[C@@H](OCC[N+](C)(C)C)NC(=O)[C@@H]5[C@@H](O)[C@@H](C)CN5C(=O)[C@H]([C@@H](C)O)NC(=O)[C@H]([C@H](O)[C@@H](O)c5ccc(O)cc5)NC(=O)[C@@H]5C[C@@H](O)CN5C(=O)[C@H]([C@@H](C)O)NC4=O)ccc3c2)cc1F [Example 16] (X1-[Orn(4R-OH,5R-OCH2CH2NMe3+)]T[Hyp][hTyr(3S-OH,4S-OH)]T[Pro(3S-OH,4S-Me)]; lactam 1-C) please.
Reply text: 37.3

----------
- assay-summary: in vivo
- condition-summary: SD, rat, iv, 5 mg/kg
Numbered stars: 1 amine (or outer) side, 2 acyl side, 3 side chain; on linkers, the order of the positions; unused ones are H or OH. Bridge positions count the residues as written; N and C are the ends. Square brackets hold non-standard residues; d marks the D form. Peptide text beside a SMILES is read from it. * marks the point of attachment. Orn(4R-OH,5R-OCH2CH2NMe3+) = C[N+](C)(C)CCO[C@@H](N[*:3])[C@H](O)C[C@H](N[*:1])C(=O)[*:2]; hTyr(3S-OH,4S-OH) = N[C@H](C(=O)O)[C@H](O)[C@@H](O)c1ccc(O)cc1; X1 = CCCCCOc1cc(F)c(C#Cc2ccc3cc(C(=O)*)ccc3c2)cc1F; Pro(3S-OH,4S-Me) = C[C@H]1CN[C@H](C(=O)O)[C@H]1O; Hyp = O=C(O)[C@@H]1C[C@@H](O)CN1
observed-property: AUC(0-inf) (µg·h/mL)
Number only, in µg·h/mL; omit the unit.

Inquiry: Report AUC(0-inf) for CCCCCOc1cc(F)c(C#Cc2ccc3cc(C(=O)N[C@H]4C[C@@H](O)[C@@H](OCC[N+](C)(C)C)NC(=O)[C@@H]5[C@@H](O)[C@@H](C)CN5C(=O)[C@H]([C@@H](C)O)NC(=O)[C@H]([C@H](O)[C@@H](O)c5ccc(O)cc5)NC(=O)[C@@H]5C[C@@H](O)CN5C(=O)[C@H]([C@@H](C)O)NC4=O)ccc3c2)cc1F [Example 16] (X1-[Orn(4R-OH,5R-OCH2CH2NMe3+)]T[Hyp][hTyr(3S-OH,4S-OH)]T[Pro(3S-OH,4S-Me)]; lactam 1-C) please.
Reply text: 424

The values you see were collected from patent US20250011365A1.
